Target: human FPR2 (Homo sapiens (Human), UniProt P25090)
Sequence (P25090 whole entry): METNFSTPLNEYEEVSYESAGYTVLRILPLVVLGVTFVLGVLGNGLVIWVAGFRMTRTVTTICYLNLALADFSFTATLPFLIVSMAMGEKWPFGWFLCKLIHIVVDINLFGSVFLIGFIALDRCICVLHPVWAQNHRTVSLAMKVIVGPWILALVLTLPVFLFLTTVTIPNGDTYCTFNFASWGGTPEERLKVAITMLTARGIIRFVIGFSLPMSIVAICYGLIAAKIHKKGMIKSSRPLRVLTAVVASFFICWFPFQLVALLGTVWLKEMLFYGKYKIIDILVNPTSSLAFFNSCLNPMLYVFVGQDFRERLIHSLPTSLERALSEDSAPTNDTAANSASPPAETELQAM
Assay: FPR2 cyclic adenosine monophosphate (cAMP) assay
Conditions: CHO cells overexpressing human FPR2; forskolin 5 µM; inhibition of cAMP production; read-out: hFPR2 cAMP2 EC50
Description: N-formyl peptide receptors (FPRs) are a family of chemo attractant receptors that facilitate leukocyte response during inflammation. FPRs belong to the seven-transmembrane G protein-coupled receptor superfamily and are linked to inhibitory G-proteins (Gi). […] FPR2 and FPR1 Cyclic Adenosine Monophosphate (cAMP) Assays. […] The level of intracellular cAMP was determined using the HTRF HiRange cAMP assay reagent kit (Cisbio) according to manufacturer’s instruction. […]
MEASUREMENT NAME: log10 of EC50 (log10 of the value in nM)
In plain terms, each number is the log10 of measured EC50 in nM.

Some compounds with recorded log10 of EC50:
COMPOUND: COCC(CO)n1cccc(N2C[C@@H](c3ccc(OC)cc3F)[C@H](NC(=O)c3ccc(OC(F)F)cc3)C2=O)c1=O (stereo partly drawn) [Example 438]
ASSAY SYSTEM: human FPR2 (Homo sapiens (Human), UniProt P25090)
log10 of EC50: 0.59

COMPOUND: COCCn1cc(F)cc(N2C[C@@H](c3c(F)cc(OC)cc3F)[C@H](NC(=O)c3ccc(OC(F)(F)F)cc3)C2=O)c1=O [Example 322]
ASSAY SYSTEM: human FPR2 (Homo sapiens (Human), UniProt P25090)
log10 of EC50: 1.00

COMPOUND: COc1cc(F)c([C@@H]2CN(c3nc(C(C)(C)O)ccc3F)C(=O)[C@H]2NC(=O)c2ccc(Cl)cc2)c(F)c1 [Example 313]
ASSAY SYSTEM: human FPR2 (Homo sapiens (Human), UniProt P25090)
log10 of EC50: 1.00

COMPOUND: COc1cc(F)c([C@H]2[C@H](NC(=O)c3ccc(Cl)cc3)C(=O)N(c3cccc(N4CC[C@@H](O)C4)n3)[C@@H]2C)c(F)c1 [Example 545]
ASSAY SYSTEM: human FPR2 (Homo sapiens (Human), UniProt P25090)
log10 of EC50: 0.78

COMPOUND: COc1cc(F)c([C@@H]2CN(c3cccc(=O)n3C)C(=O)[C@H]2NC(=O)c2ccc(OC(F)(F)F)cc2)c(F)c1 [Example 11]
ASSAY SYSTEM: human FPR2 (Homo sapiens (Human), UniProt P25090)
log10 of EC50: 1.49

Next:
q: Fill blank: measured log10 of EC50 of the compound COCC(CO)n1ccc(C)c(N2C[C@@H](c3c(F)cc(OC)cc3F)[C@H](NC(=O)c3ccc(OC(F)F)cc3)C2=O)c1=O (stereo partly drawn) [Example 112] is ____.
a: 0.48

Origin of the recorded values: patent US20230348426A1
